- Tested on: COG-LL-402h;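 note: ALL cell lines in 384-well plates, five doses spanning 10,000-fold, each plate scaled between vehicle and 100 µmol/L benzalkonium chloride controls, sDSS an adapted area-under-curve metric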
- protocol.notes: selective drug sensitivity score (sDSS, relative to normal bone marrow) (sDSS (score)); higher = more potent and effective on the cell line relative to normal bone marrow cells
- condition.description: 72 h
Can you tell me selective drug sensitivity score for the items I'm about to list?
Answers are plain numbers.

// worked examples, selective drug sensitivity score included
>>> observed_measurement("C[C@@H]1C[C@H]2[C@@H]3CCC4=CC(=O)C=C[C@]4(C)[C@@]3(F)[C@@H](O)C[C@]2(C)[C@@]1(O)C(=O)CO [Dexamethasone] (top concentration 10000 nM)")
29.3
>>> observed_measurement("C=CC(=O)N1CCC(Oc2cc3c(Nc4ccc(Cl)c(Cl)c4F)ncnc3cc2OC)CC1 [Poziotinib] (top concentration 1000 nM)")
1.58
>>> observed_measurement("Sc1ncnc2nc[nH]c12 [Mercaptopurine] (top concentration 10000 nM)")
6.6
>>> observed_measurement("CC(C)C(=O)Nc1ccc([N+](=O)[O-])c(C(F)(F)F)c1 [Flutamide] (top concentration 10000 nM)")
-0.56
>>> observed_measurement("Cc1cc2c(C(=O)NC[C@H](C)c3ccccc3)c(O)c(O)cc2c(O)c1-c1c(C)cc2c(C(=O)NC[C@H](C)c3ccccc3)c(O)c(O)cc2c1O [Sabutoclax] (top concentration 25000 nM)")
15.3

Kindly consider the entry below.
selective drug sensitivity score lookup needed for CNC(=O)c1cc(Oc2ccc(NC(=O)Nc3ccc(Cl)c(C(F)(F)F)c3)cc2)ccn1 [Sorafenib] (top concentration 1000 nM) , thanks.
0
